target: UniProtKB P00734
assay.remarks: Human thrombin inhibition (amidase activity, chromogenic substrate; Kass)
test.settings: purified human thrombin, mean over a range of concentrations
Square brackets hold non-standard residues; d marks the D form. Peptide text beside a SMILES is read from it. ξ: configuration not given here. dPip = O=C(O)[C@H]1CCCCN1; dThz = O=C(O)[C@H]1CSCN1; ξAze = O=C(O)C1CCN1

[
  {
    "molecule": "Cl.Cl.N=C(N)NCCC[C@@H](C=O)NC(=O)[C@@H]1CCCN1C(=O)C1CNCCN1 (stereo partly shown)",
    "Kass × 10^6 (l/mole)": "121 × 10^6 l/mole"
  },
  {
    "molecule": "Cl.Cl.N=C(N)NCCC[C@@H](C=O)NC(=O)[C@@H]1CCCN1C(=O)C1NCCCC2CCCCC21 (mixture of isomers)",
    "Kass × 10^6 (l/mole)": "595 × 10^6 l/mole"
  },
  {
    "molecule": "Cl.Cl.N=C(N)NCCC[C@@H](C=O)NC(=O)[C@@H]1CCCN1C(=O)[C@H]1CCCCN1 [Example 1] (H-[dPip]-Pro-Arg-aldehyde)",
    "Kass × 10^6 (l/mole)": "46 × 10^6 l/mole"
  },
  {
    "molecule": "Cl.Cl.N=C(N)NCCC[C@@H](C=O)NC(=O)C1CCN1C(=O)[C@H]1CCCCN1 (stereo partly shown) [Example 3] (H-[dPip]-[ξAze]-Arg-aldehyde)",
    "Kass × 10^6 (l/mole)": "45 × 10^6 l/mole"
  },
  {
    "molecule": "Cl.Cl.N=C(N)NCCC[C@@H](C=O)NC(=O)[C@@H]1CCCN1C(=O)[C@H]1CSCN1 [Example 4] (H-[dThz]-Pro-Arg-aldehyde)",
    "Kass × 10^6 (l/mole)": "5 × 10^6 l/mole"
  },
  {
    "molecule": "Cl.Cl.N=C(N)NCCC[C@@H](C=O)NC(=O)[C@@H]1CCCN1C(=O)C1NCCS1 (stereo partly shown)",
    "Kass × 10^6 (l/mole)": "27 × 10^6 l/mole"
  },
  {
    "molecule": "Cl.Cl.Cl.N=C(N)NCCC[C@@H](C=O)NC(=O)[C@@H]1CCCN1C(=O)[C@H]1C[C@H](Sc2ccccc2)CN1.O.O.O",
    "Kass × 10^6 (l/mole)": "37 × 10^6 l/mole"
  },
  {
    "molecule": "Cl.Cl.Cl.N=C(N)NCCC[C@@H](C=O)NC(=O)[C@@H]1CCCN1C(=O)[C@H]1C[C@H](Oc2ccc3ccccc3c2)CN1.O",
    "Kass × 10^6 (l/mole)": "21 × 10^6 l/mole"
  },
  {
    "molecule": "Cl.Cl.Cl.N=C(N)NCCC[C@@H](C=O)NC(=O)[C@@H]1CCCN1C(=O)[C@H]1C[C@@H](Oc2ccccc2)CN1.O (relative stereo)",
    "Kass × 10^6 (l/mole)": "25 × 10^6 l/mole"
  },
  {
    "molecule": "CC(C)C1N[C@@H](C(=O)N2CCC[C@H]2C(=O)N[C@H](C=O)CCCNC(=N)N)C(C)(C)S1.Cl.Cl (stereo partly shown)",
    "Kass × 10^6 (l/mole)": "4 × 10^6 l/mole"
  }
]

Data origin, for the record: patent US5578574A
